experimental target: Tyrosine-protein kinase Mer (Homo sapiens);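 also: values are mean inhibition of human MER kinase, from the GSK PKIS profiling panel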
Sequence (whole entry): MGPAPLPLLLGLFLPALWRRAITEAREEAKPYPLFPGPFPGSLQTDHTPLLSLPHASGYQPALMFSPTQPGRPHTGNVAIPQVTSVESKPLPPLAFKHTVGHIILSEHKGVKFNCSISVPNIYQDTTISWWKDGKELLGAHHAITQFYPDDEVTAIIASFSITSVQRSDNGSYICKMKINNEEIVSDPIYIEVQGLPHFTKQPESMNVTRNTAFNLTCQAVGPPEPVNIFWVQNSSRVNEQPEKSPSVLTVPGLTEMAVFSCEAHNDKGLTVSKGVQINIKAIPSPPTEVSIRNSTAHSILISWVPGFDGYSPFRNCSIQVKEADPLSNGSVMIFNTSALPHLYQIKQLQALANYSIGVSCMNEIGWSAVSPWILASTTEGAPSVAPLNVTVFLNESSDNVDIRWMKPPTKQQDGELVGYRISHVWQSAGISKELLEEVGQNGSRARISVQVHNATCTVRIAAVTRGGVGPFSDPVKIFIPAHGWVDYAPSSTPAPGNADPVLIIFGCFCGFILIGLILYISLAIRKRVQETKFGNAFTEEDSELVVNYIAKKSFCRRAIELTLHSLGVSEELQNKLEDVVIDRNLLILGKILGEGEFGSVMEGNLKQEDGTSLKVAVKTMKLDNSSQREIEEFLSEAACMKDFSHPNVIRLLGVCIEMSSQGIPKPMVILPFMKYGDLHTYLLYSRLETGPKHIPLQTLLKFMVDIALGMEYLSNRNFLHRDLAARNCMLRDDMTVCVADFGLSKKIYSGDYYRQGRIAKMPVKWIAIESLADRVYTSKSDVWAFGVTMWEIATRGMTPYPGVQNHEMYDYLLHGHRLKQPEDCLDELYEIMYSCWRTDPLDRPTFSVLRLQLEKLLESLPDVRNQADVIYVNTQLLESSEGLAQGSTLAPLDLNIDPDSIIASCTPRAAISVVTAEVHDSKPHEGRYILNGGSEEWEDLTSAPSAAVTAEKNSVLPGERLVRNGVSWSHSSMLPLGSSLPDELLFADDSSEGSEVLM
assay setup: at 1 µM
parameter: inhibition
# number then unit; no other words

Oc1cccc(-c2nc(-c3ccccc3)[nH]c2-c2ccncc2)c1 :: 6.42%

inhibition of COc1cccc(-n2ncc3c(N/N=C/c4ccc(S(C)(=O)=O)cc4)ncnc32)c1 on Tyrosine-protein kinase Mer (Homo sapiens)? 28.3%

inhibition of CN(C)C(=O)O[C@H]1CN[C@H](C#Cc2cc3ncnc(Nc4ccc(OCc5cccc(F)c5)c(Cl)c4)c3s2)C1 on Tyrosine-protein kinase Mer (Homo sapiens)? 3.05%

inhibition of CS(=O)(=O)CCNCc1nc(-c2ccc3ncnc(Nc4ccc(OCc5cccc(C(F)(F)F)c5)cc4)c3c2)cs1 on Tyrosine-protein kinase Mer (Homo sapiens)? 5.41%

inhibition of NS(=O)(=O)c1ccc(NC=C2C(=O)Nc3ccc4ncsc4c32)cc1 on Tyrosine-protein kinase Mer (Homo sapiens)? 16.3%

inhibition of Cc1cc(O)cc(C)c1/C=C/c1cncc(C(=O)N(C)C)c1 on Tyrosine-protein kinase Mer (Homo sapiens)? 8.23%
